System: Bacillus cereus
Assay comment: Antibacterial activity against Bacillus cereus ATCC 10702 by doubling dilution method
Assay type: functional
Protocol conditions: Bacillus cereus, ATCC 10702; read-out: MIC
Readout type: MIC (µg/mL)

Completed entries (count: 4):
INSERT INTO results (compound, readout_type, units_label, assay_result) VALUES
  ('CC(C)=CCC[C@@]1(C)[C@H](CC=C(C)C)C[C@]2(C)C(=O)[C@@]1(C(=O)C(C)C)C(=O)C1=C2OC(C)(C)C=C1 [PAPUAFORIN E]', 'MIC', 'µg/mL', 64),
  ('CC(C)=CC[C@@H]1C[C@@]2(C)C(=O)[C@](CC=C(C)C)(C(=O)C(C(=O)C(C)C)=C2O)C1(C)C (stereo in doubt; 8)', 'MIC', 'µg/mL', 8),
  ('CCC(C)C(=O)[C@]12C(=O)C3=C(OC(C)(C)C=C3)[C@](C)(C[C@@H](CC=C(C)C)C1(C)C)C2=O (stereo partly drawn) [PAPUAFORIN C]', 'MIC', 'µg/mL', 64),
  ('CC(C)=CCC1(C)C(=O)C(C(=O)C(C)C)=C(O)C2=C1OC(C)(C)C=C2 (stereo in doubt; 7a) [HYPERGUINONE B]', 'MIC', 'µg/mL', 32);

[a] CC(C)=CC[C@@H]1C[C@]2(C)C(=O)[C@@](C(=O)C(C)C)(C(=O)C3=C2OC(C)(C)C=C3)C1(C)C [PAPUAFORIN A]
[b] CCC(C)C(=O)[C@]12C(=O)C3=C(OC(C)(C)C=C3)[C@](C)(C[C@@H](CC=C(C)C)[C@]1(C)CCC=C(C)C)C2=O (stereo partly drawn) [PAPUAFORIN D]
[c] CCC(=O)C1=C(O)C2=C(OC(C)(C)C=C2)C(C)(CC=C(C)C)C1=O (stereo in doubt; 6a) [HYPERGUINONE A]
[d] O=C(N[C@H](CO)[C@H](O)c1ccc([N+](=O)[O-])cc1)C(Cl)Cl [CHLORAMPHENICOL]
Put the items in order so that reported MIC rises from first to last. Give the labels in the order specified. d, c, a, b
(d: 2 µg/mL, c: 32 µg/mL, a: 64 µg/mL, b: 128 µg/mL)

Values were extracted from ChEMBL document CHEMBL1150854.
